# System: Escherichia coli TOP10
# Assay remarks: shrunken log2 fold change of peptide-encoding DNA abundance (4.5 h post-induction vs induction); higher = less antimicrobial activity (less host growth inhibition)
# Condition notes: time post-induction: 4.5 h; library: site-saturation at positions 5, 18, 19, 20
Readout label: shrunken log2 fold change
Answer field: number only, no words.

Sample answers from the record:
>  <Residue sequence>
RRIRYRPPRLPRPRPRPTCNPRP

>  <shrunken log2 fold change>
-0.351

$$$$
>  <Residue sequence>
RRIRTRPPRLPRPRPRPGFAPRP

>  <shrunken log2 fold change>
0.33

$$$$
>  <Residue sequence>
RRIRSRPPRLPRPRPRPPFRPRP

>  <shrunken log2 fold change>
0.193

$$$$
>  <Residue sequence>
RRIRIRPPRLPRPRPRPSMWPRP

>  <shrunken log2 fold change>
-0.178

$$$$
>  <Residue sequence>
RRIRCRPPRLPRPRPRPNDCPRP

>  <shrunken log2 fold change>
-0.0147

$$$$

// query I am curious: what shrunken log2 fold change value has been reported for RRIRTRPPRLPRPRPRPHITPRP ?
// result -0.625

// query Request the reported shrunken log2 fold change associated with RRIRHRPPRLPRPRPRPVPKPRP
// result 0.0819

// query What measured shrunken log2 fold change goes with RRIRTRPPRLPRPRPRPMDCPRP ?
// result -0.0416

* * *

Below is a list of entries, each paired with its recorded shrunken log2 fold change value.
# Tested on: Escherichia coli TOP10
# Assay remarks: shrunken log2 fold change of peptide-encoding DNA abundance (4.5 h post-induction vs induction); higher = less antimicrobial activity (less host growth inhibition)
# Condition notes: time post-induction: 4.5 h; library: site-saturation at positions 5, 18, 19, 20
Response field accepts a number only; no unit should be typed.

// known answers, use as guide
>  <Residue sequence>
RRIRRRPPRLPRPRPRPAKVPRP

>  <shrunken log2 fold change>
0.0346

$$$$
>  <Residue sequence>
RRIRCRPPRLPRPRPRPPCAPRP

>  <shrunken log2 fold change>
0.354

$$$$
>  <Residue sequence>
RRIRPRPPRLPRPRPRPWFMPRP

>  <shrunken log2 fold change>
-0.18

$$$$
>  <Residue sequence>
RRIRDRPPRLPRPRPRPAFLPRP

>  <shrunken log2 fold change>
0.000425

$$$$
>  <Residue sequence>
RRIRFRPPRLPRPRPRPLVTPRP

>  <shrunken log2 fold change>
-0.318

$$$$
>  <Residue sequence>
RRIRQRPPRLPRPRPRPKHFPRP

>  <shrunken log2 fold change>
-0.0231

$$$$
>  <Residue sequence>
RRIRTRPPRLPRPRPRPLKFPRP

>  <shrunken log2 fold change>
-0.27

$$$$
>  <Residue sequence>
RRIRGRPPRLPRPRPRPLSFPRP

>  <shrunken log2 fold change>
0.121

$$$$
>  <Residue sequence>
RRIRHRPPRLPRPRPRPCQWPRP

>  <shrunken log2 fold change>
-0.0469

$$$$
>  <Residue sequence>
RRIRPRPPRLPRPRPRPGQTPRP

>  <shrunken log2 fold change>
-0.00112

$$$$

// query Entry RRIRKRPPRLPRPRPRPNHWPRP : reported shrunken log2 fold change = ?
// result 0.0915

// query Recorded shrunken log2 fold change of RRIRYRPPRLPRPRPRPPVGPRP , please.
// result 0.0196

// query # input sequence: RRIRLRPPRLPRPRPRPGWQPRP ; wanted: its shrunken log2 fold change
// result 0.175

// query Would you mind telling me what shrunken log2 fold change value was observed for RRIRERPPRLPRPRPRPPWGPRP ?
// result 0.285

// query Entry RRIRPRPPRLPRPRPRPSQTPRP : reported shrunken log2 fold change = ?
// result 0.265

* * *

# Tested on: Escherichia coli TOP10
# Assay remarks: shrunken log2 fold change of peptide-encoding DNA abundance (4.5 h post-induction vs induction); higher = less antimicrobial activity (less host growth inhibition)
# Condition notes: time post-induction: 4.5 h; library: site-saturation at positions 5, 18, 19, 20
Readout label: shrunken log2 fold change

>  <Residue sequence>
RRIRERPPRLPRPRPRPCQPPRP

>  <shrunken log2 fold change>
0.0208

$$$$
>  <Residue sequence>
RRIRGRPPRLPRPRPRPKAGPRP

>  <shrunken log2 fold change>
1.17

$$$$
>  <Residue sequence>
RRIRCRPPRLPRPRPRPTCCPRP

>  <shrunken log2 fold change>
-0.354

$$$$
>  <Residue sequence>
RRIRMRPPRLPRPRPRPAPSPRP

>  <shrunken log2 fold change>
1.28

$$$$

--- query ---
// query Which shrunken log2 fold change is listed for RRIRARPPRLPRPRPRPFIFPRP ?
// result 0.419

* * *

# System: Escherichia coli TOP10
# Assay remarks: shrunken log2 fold change of peptide-encoding DNA abundance (4.5 h post-induction vs induction); higher = less antimicrobial activity (less host growth inhibition)
# Condition notes: time post-induction: 4.5 h; library: site-saturation at positions 5, 18, 19, 20
Lab note: class by shrunken log2 fold change, see LOW = under -0.08, MEDIUM = from -0.08 up to 0.1, HIGH = 0.1 and over

Use the examples below as a reference point.
>  <Residue sequence>
RRIRCRPPRLPRPRPRPLFQPRP

>  <Test system>
Escherichia coli TOP10

>  <Assigned class>
LOW

$$$$
>  <Residue sequence>
RRIRHRPPRLPRPRPRPMNAPRP

>  <Test system>
Escherichia coli TOP10

>  <Assigned class>
LOW

$$$$
>  <Residue sequence>
RRIRPRPPRLPRPRPRPKCIPRP

>  <Test system>
Escherichia coli TOP10

>  <Assigned class>
LOW

$$$$
>  <Residue sequence>
RRIRVRPPRLPRPRPRPFSDPRP

>  <Test system>
Escherichia coli TOP10

>  <Assigned class>
LOW

$$$$
>  <Residue sequence>
RRIRNRPPRLPRPRPRPGGPPRP

>  <Test system>
Escherichia coli TOP10

>  <Assigned class>
HIGH

$$$$

// query Just checking, what class would you give RRIRGRPPRLPRPRPRPRPQPRP here?
// result HIGH

* * *

Listing: shrunken log2 fold change of selected sequences
# Test system: Escherichia coli TOP10
# Assay remarks: shrunken log2 fold change of peptide-encoding DNA abundance (4.5 h post-induction vs induction); higher = less antimicrobial activity (less host growth inhibition)
# Condition notes: time post-induction: 4.5 h; library: site-saturation at positions 5, 18, 19, 20
Please reply with the number alone, leaving off any unit.

>  <Residue sequence>
RRIRLRPPRLPRPRPRPNNPPRP

>  <shrunken log2 fold change>
-0.157

$$$$

// query Enter reported shrunken log2 fold change observed with Escherichia coli TOP10 for RRIRGRPPRLPRPRPRPMMSPRP
// result 0.136

// query Write down the reported shrunken log2 fold change of RRIRWRPPRLPRPRPRPCDVPRP , test system: Escherichia coli TOP10.
// result -0.00226

// query Checklist item: shrunken log2 fold change tested on Escherichia coli TOP10, entry RRIRFRPPRLPRPRPRPPIGPRP , value?
// result -0.229

* * *

# Test system: Escherichia coli TOP10;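 also: peptides expressed intracellularly from a pBAD plasmid library in pooled LB shake-flask culture, induced with 0.3% L-arabinose, DNA abundance read by NGS, three biological replicates, DESeq2 with apeglm shrinkage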
# Assay remarks: shrunken log2 fold change of peptide-encoding DNA abundance (4.5 h post-induction vs induction); higher = less antimicrobial activity (less host growth inhibition)
# Condition notes: time post-induction: 4.5 h; library: site-saturation at positions 5, 18, 19, 20
Definition: the class of an entry is the range in bottom (below -0.2), middle (-0.2 to below 0.09), top (0.09 or more) that contains its shrunken log2 fold change.

See these solved cases before continuing.
>  <Residue sequence>
RRIRLRPPRLPRPRPRPQHSPRP

>  <Assigned class>
bottom

$$$$
>  <Residue sequence>
RRIRCRPPRLPRPRPRPQFYPRP

>  <Assigned class>
bottom

$$$$
>  <Residue sequence>
RRIRMRPPRLPRPRPRPERIPRP

>  <Assigned class>
middle

$$$$
>  <Residue sequence>
RRIRARPPRLPRPRPRPQTPPRP

>  <Assigned class>
top

$$$$
>  <Residue sequence>
RRIRARPPRLPRPRPRPWGHPRP

>  <Assigned class>
middle

$$$$
>  <Residue sequence>
RRIRKRPPRLPRPRPRPHMNPRP

>  <Assigned class>
bottom

$$$$
>  <Residue sequence>
RRIRDRPPRLPRPRPRPEITPRP

>  <Assigned class>
middle

$$$$
>  <Residue sequence>
RRIRYRPPRLPRPRPRPQYNPRP

>  <Assigned class>
bottom

$$$$

// query Category lookup for the sequence RRIRCRPPRLPRPRPRPYPNPRP
// result bottom

// query Consider RRIRNRPPRLPRPRPRPYLDPRP . To which shrunken log2 fold change class does it belong?
// result middle

// query GET /class?item= RRIRWRPPRLPRPRPRPWTEPRP
// result bottom

// query Class? Entry: RRIRCRPPRLPRPRPRPENEPRP
// result top

// query Kindly state the category for this sequence: RRIRNRPPRLPRPRPRPPKGPRP
// result top

// query Please let me know in which category the item RRIRGRPPRLPRPRPRPRHRPRP belongs.
// result top

// query Which shrunken log2 fold change category applies to RRIRPRPPRLPRPRPRPPASPRP here?
// result top

// query Given RRIRKRPPRLPRPRPRPARSPRP , name the class its shrunken log2 fold change places it in.
// result top

// query Please report the category associated with RRIRGRPPRLPRPRPRPWNGPRP , nothing else.
// result middle

// query Just checking, what class would you give RRIRYRPPRLPRPRPRPLGMPRP here?
// result bottom

// query Class label required: RRIRERPPRLPRPRPRPCSHPRP
// result middle

// query Band for the recorded shrunken log2 fold change of RRIRARPPRLPRPRPRPLLKPRP ?
// result top

// query # bin label for RRIRHRPPRLPRPRPRPSPQPRP
// result bottom

// query Place this sequence in its band: RRIRQRPPRLPRPRPRPPKMPRP
// result middle

Measured values drawn from the supplement of paper PMC9112550 for this set.
